# Test system: human colon adenocarcinoma HT-29
# experimental.protocol: MTT antiproliferative assay, HT-29
# Type: cell-based
# condition.label: 24 h treatment, mean of 3 independent experiments, read-out: Antiproliferative activity IC50 ± S.D., HT-29

- compound: "O=c1[nH]cc(F)c(=O)[nH]1 [5-Flurouracil, reference compound]"
  value.unit: "nM"
  IC50: 300
